Recorded values, source ChEMBL document CHEMBL1153893.

Test summary: Metabolic stability in human liver microsomes assessed as half life
Type: ADME, Microsome
Readout label: half-life (min)

Past entries and their recorded results:
compound="CC(C)CCN1C(=O)C(C2=NS(=O)(=O)c3cc(NS(C)(=O)=O)ccc3N2)=C(O)C2CCCCC21 (racemic)" experimental_value=28
compound="CC(C)(C)CCN1C(=O)C(C2=NS(=O)(=O)c3cc(NS(C)(=O)=O)ccc3N2)=C(O)C2CCCC21 (racemic)" experimental_value=7
compound="CS(=O)(=O)Nc1ccc2c(c1)S(=O)(=O)N=C(C1=C(O)C3CCCC3N(Cc3cccc(F)c3)C1=O)N2 (racemic)" experimental_value=51
compound="CS(=O)(=O)Nc1ccc2c(c1)S(=O)(=O)N=C(C1=C(O)C3CCCC3N(CCc3ccccc3)C1=O)N2 (racemic)" experimental_value=25
compound="CS(=O)(=O)Nc1ccc2c(c1)S(=O)(=O)N=C(C1=C(O)C3CCCC3N(CC3CCC3)C1=O)N2 (racemic)" experimental_value=4
compound=CC(C)(C)CCN1C(=O)C(C2=NS(=O)(=O)c3cc(NS(C)(=O)=O)ccc3N2)=C(O)[C@H]2CCC[C@H]21 experimental_value=16

[1] CC(C)CCN1C(=O)C(C2=NS(=O)(=O)c3cc(NS(C)(=O)=O)ccc3N2)=C(O)C2CCCC21 (racemic)
[2] CC(C)CCN1C(=O)C(C2=NS(=O)(=O)c3cc(NS(C)(=O)=O)ccc3N2)=C(O)[C@H]2CCC[C@H]21
Query: I'm curious whether 1 or 2 has the smaller half-life number. Which is it? Your choice should be expressed through its label.
Response: 1
(1: 10 min, 2: 23 min)

* * *

Test summary: Metabolic stability in monkey liver microsomes assessed as half life
Type: ADME, Macaca mulatta, Microsome
Recorded conditions: rhesus monkey
Readout label: half-life (min)

[a] CC(C)(C)CCN1C(=O)C(C2=NS(=O)(=O)c3cc(NS(C)(=O)=O)ccc3N2)=C(O)C2CCCCC21 (racemic)
[b] CC(C)CCN1C(=O)C(C2=NS(=O)(=O)c3cc(NS(C)(=O)=O)ccc3N2)=C(O)C2CCCC21 (racemic)
[c] CC(C)(C)CCN1C(=O)C(C2=NS(=O)(=O)c3cc(NS(C)(=O)=O)ccc3N2)=C(O)C2CCCC21 (racemic)
Query: Ordering criterion: half-life; begin with the maximum. API: response body holds the labels in the requested order.
Response: b, a, c
(b: 13 min, a: 8 min, c: 5.4 min)

* * *

Test summary: Metabolic stability in monkey liver microsomes assessed as compound remaining at 1 uM after 60 mins
Assay type: ADME, Macaca mulatta, Microsome
Recorded conditions: rhesus monkey, read-out: Stability
Readout label: remaining at 1 h, 1 µM (%)

molecule=CS(=O)(=O)Nc1ccc2c(c1)S(=O)(=O)NC(C1=C(O)[C@@H]3CCC[C@@H]3N(Cc3ccc(F)cc3)C1=O)=N2 unit_tag=% experimental_value=100
molecule=CS(=O)(=O)Nc1ccc2c(c1)S(=O)(=O)N=C(C1=C(O)[C@H]3CCC[C@H]3N(Cc3ccc(F)c(F)c3)C1=O)N2 unit_tag=% experimental_value=100
molecule=CS(=O)(=O)Nc1ccc2c(c1)S(=O)(=O)N=C(C1=C(O)[C@H]3CCCC[C@H]3N(Cc3ccc(F)cc3)C1=O)N2 unit_tag=% experimental_value=100
molecule=CS(=O)(=O)Nc1ccc2c(c1)S(=O)(=O)N=C(c1c(O)c3cccn3n(Cc3ccc(F)cc3)c1=O)N2 unit_tag=% experimental_value=90
molecule=CS(=O)(=O)Nc1ccc2c(c1)S(=O)(=O)N=C(C1=C(O)[C@@H]3CCCC[C@@H]3N(Cc3ccc(F)cc3)C1=O)N2 unit_tag=% experimental_value=83
molecule="CS(=O)(=O)Nc1ccc2c(c1)S(=O)(=O)N=C(C1=C(O)C3CCCCCC3N(Cc3ccc(F)cc3)C1=O)N2 (racemic)" unit_tag=% experimental_value=81
molecule=CS(=O)(=O)Nc1ccc2c(c1)S(=O)(=O)N=C(C1=C(O)[C@H]3CCC[C@H]3N(Cc3ccc(F)cc3)C1=O)N2 unit_tag=% experimental_value=100
